TEST_SYSTEM: SARS-CoV-2 PLpro (nsp3 1564–1878) (Severe acute respiratory syndrome coronavirus 2, UniProt P0DTD1)
EXPERIMENT_DESCRIPTION: biochemical
Assay type: biochemical
ASSAY_SETUP: screen, 3.75 µM compound; number after the slash is the control without compound
Hi! Just check whether slope value (of slope value/control) 3.75 µM is below 300. Below gives Criterion met, equal or above gives Criterion not met.

Problem: Dear colleague, could you confirm whether slope value (of slope value/control) 3.75 µM of "Cc1cc2nc3c(=O)[nH]c(=O)nc-3n(C)c2cc1C=O" falls below 300? Thanks.
Result: Criterion met

Problem: Dear colleague, could you confirm whether slope value (of slope value/control) 3.75 µM of "O=C(O)c1cccc(O)c1O" falls below 300? Thanks.
Result: Criterion met

Problem: Dear colleague, could you confirm whether slope value (of slope value/control) 3.75 µM of "O=C1c2ccccc2-c2nc3nnnn3nc21" falls below 300? Thanks.
Result: Criterion met

Problem: Dear colleague, could you confirm whether slope value (of slope value/control) 3.75 µM of Cc1cccc2c3c(ccc12)C1=C(C(=O)C3=O)[C@@H](C)CO1 [Dihydrotanshinone I] falls below 300? Thanks.
Result: Criterion not met

Problem: Dear colleague, could you confirm whether slope value (of slope value/control) 3.75 µM of "CC1(C)CCC2=C(O1)c1ccccc1C(=O)C2=O" falls below 300? Thanks.
Result: Criterion not met
